B1: FEM1A (parent)
chain: NIVEYLIQEQPGQEQVAGGEAQPG

# Variants of: B1
# assay-protocol: protein stability index of a GFP-peptide fusion (GPS, HEK-293T) (PSI 1-6); higher = more stable;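 also: lentivirally expressed fusions sorted by FACS into six bins by GFP to DsRed ratio, PSI derived from sequencing read proportions per bin multiplied by bin number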
# conditions-used: c terminus: a fixed tail appended
measurement-type: protein stability index

[
  {
    "seq": "NITEYLIQEQPGQEQVAGGEAQPG [V3T]",
    "result": 4.81
  },
  {
    "seq": "NIVEYLIQIQPGQEQVAGGEAQPG [E9I]",
    "result": 2.3
  }
]

Query variant follows.
Request: Identify measured protein stability index associated with NIVEYLIQEQPGQEFVAGGEAQPG [Q15F]
Response: 3.24

Data origin: the supplement of paper PMC10567573
